Assignment: determine reported Top (MFI) for the given binders.
- TESTED_SYSTEM: T1, human SLC34A2 (human, UniProt O95436 1-690)
- T1 construct: whole, on cells; also called human solute carrier 34 A2; NaPi2b
- T1 sequence (looked up): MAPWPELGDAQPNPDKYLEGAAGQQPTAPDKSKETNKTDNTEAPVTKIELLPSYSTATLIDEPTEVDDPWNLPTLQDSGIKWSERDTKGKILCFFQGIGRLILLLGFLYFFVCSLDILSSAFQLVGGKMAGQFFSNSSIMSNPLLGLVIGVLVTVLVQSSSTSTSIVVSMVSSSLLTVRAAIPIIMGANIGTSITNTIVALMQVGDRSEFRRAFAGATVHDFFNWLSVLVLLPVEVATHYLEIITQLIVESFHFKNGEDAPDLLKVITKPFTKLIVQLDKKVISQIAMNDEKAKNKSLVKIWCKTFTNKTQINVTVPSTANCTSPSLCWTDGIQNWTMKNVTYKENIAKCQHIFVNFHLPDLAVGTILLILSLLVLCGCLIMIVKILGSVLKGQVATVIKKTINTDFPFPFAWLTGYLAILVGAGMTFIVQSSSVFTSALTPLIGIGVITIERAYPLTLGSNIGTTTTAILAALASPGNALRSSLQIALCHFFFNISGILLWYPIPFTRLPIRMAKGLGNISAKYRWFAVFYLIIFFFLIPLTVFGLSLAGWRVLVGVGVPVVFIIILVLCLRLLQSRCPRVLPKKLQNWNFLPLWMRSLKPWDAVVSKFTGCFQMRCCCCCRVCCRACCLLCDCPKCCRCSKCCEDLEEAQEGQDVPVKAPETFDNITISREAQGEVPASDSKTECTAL
- PROCEDURE_SUMMARY: FACS, RMG-1 cells
Answers are plain numbers, in MFI.

Here is how some binders turned out for Top (MFI).
BINDER	UNIT_INFO	Top (MFI)
xi18G1H4 hIgG1 (antibody, V domains shown, chimeric, hIgG1) VH: QVQLQQPGAELVKPGASVRMSCKASAYTFTTYNLHWVKQTPGQGLEWIGAISPGNGVTSYNQKFRGKATLTADKSSSTAYMQLSSLTSEDSAVYYCARGYGYSVGAMDYWGQGTSVTVSS VL: DIQMTQTTSSLSASLGDRVNISCSASQGIGNFLNWYQQKPDGTVKLLIYYTSSLHSGVPPRFSGSGSGTDYSLTISNLEPEDIATYYCQQYHKLPLTFGAGTKLELK	MFI	9800
xi28G3C6B9 hIgG1 (antibody, V domains shown, chimeric, hIgG1) VH: QVQLQQPGAEVVKPGASVKMSCKASGYTFTSYIIHWVKQAPGQGLEWIGAIYPGNGDTSYSQRFKGKAKLTADKSSSTAYMQLNSLTSEDSVVYYCARGNNYGSPAWFGYWGQGTLVTVSA VL: DIVLTQSPVTLSVTPGDRVSLSCRASQSIGNFLYWYQQKSHESPRLLIKYASQSMSGIPSRFSGSGSGTDFTLSISRVETEDFGMYFCQQSNSWPVTFGAGTKLELK	MFI	9420
xi91C9F1 hIgG1 (antibody, V domains shown, chimeric, hIgG1) VH: EVQLQQSGPELVKPGTSVKISCKTSGFFFTEYIIHWVKQSHGRSLEWIGGIIPNNGVTNYKQNFRGKAALTADKSSNTAYMELRSLTSEDSAVYYCARWRNGYYSAMDSWGQGTSVTVSS VL: DIVVTQSHKFMSTSLGDRVSITCTASQDVGTAVAWYQQKPGHSPKLLIYWASTRHTGVPERFTGSGSGTDFTLTITNVQSEDLADYFCQQYRTSPLTFGVGTKLELK	MFI	9230

List the reported Top (MFI) of each binder below.
1. xi63A11D5B4 hIgG1 (antibody, V domains shown, chimeric, hIgG1) VH: QVQLQQPGAELVKPGASVKMSCRTSGYTFITYNMHWVKQTPGQGREWIGAIYPGNGDTSYNQKFKGKATLTADKSSSTAYMQLNSLTSEDSAVYYCSISTIITTGAVDYWGQGTSVTVAS VL: DIVMTQSHKFMSTSVGDRVSITCKASQDVGTAVAWYQQKAGQSPKLLIYWTSTRHTGVPDRFTGSGSGTDFTLIIRSLQSEDLADYFCQQYSRIPLTFGSGTKLEIK
2. xi78D1B10 hIgG1 (antibody, V domains shown, chimeric, hIgG1) VH: QVQLQQPGADLVKPGASVKLSCKASGFTFTSYIIHWVKQTPGQGLEWIGAIYPGNGDTSYIQKFKGRATLTADKSSTTAYMQLGGLTSEDSAVYYCARGTYGSSAWFVYWGQGTLVTVSA VL: DIVLTQSPATLSVTPGDSVSLSCRASQSISNNLYWYQQKSHESPRLLIKYASQSISGIPSRFRGSGSGTDFTLSINSVETEDFGMYFCQQSNSWPLTFGAGTKLELK
3. xi30H9B8F9 hIgG1 (antibody, V domains shown, chimeric, hIgG1) VH: QVQLQQPGAELVKPGASVKMSCKTSGYTFTTNNMHWVKQTPGQGLEWIGAIYPGNGATAYNQKFKGKATLTADKSSSTAYMQLSSLTSEASAVYYCARGMYGHGAMDYWGQGTSVIVSS VL: DIVMTQSHKFMSRSVGDRVRITCKASQDVGTAVAWYQQKPGQSPKLLIYWATTRHSGVPDRFTGSGSGTDFIFTISNVQSEDLADYFCQQYSSNPLTFGAGTKLELK
4. xi62G10E4G8 hIgG1 (antibody, V domains shown, chimeric, hIgG1) VH: QVQLQQSGAEVVKPGASVKMSCKASGYTFPSYITHWVKQTPGQGLEWIGAIYPGNGDTSYIQKFKGKATLTADKSSSTAYMQLSSLTSEDSAVYYCARGTYGTSAWFTYWGQGTLVTVSA VL: DIVLTQSPATLSVTPGDSVSLSCRARQNIGNNLYWYQQKSHESPRLLIKYASQSISGIPSRFSGSGSGTDFTLTINSVETEDFGVYFCQQSFSWPLTFGAGTKLELK
5. xi69B11D8 hIgG1 (antibody, V domains shown, chimeric, hIgG1) VH: EVQLQQSGPELVKPGAAVKISCKTSGYTFTDYTMHWVRQSHGKSLEWIGGIHPNNGGTGYNQKLRGKATLTVDKSSSTAYMELRSLTSDDSAVYYCARGRESDGWFTYWGQGTLVTFSA VL: DVHMTQTTSSLSASLGDRVTITCSASQGIGNSLNWYQQQPDGTVKLLIYYTSRLHSGVPSRFSGSGSGTDYSLTISNLEPEDLATYYCQQYSRFPPTFGGGTKLEIK
6. xi55E5B6D12 hIgG1 (antibody, V domains shown, chimeric, hIgG1) VH: QVQLQQSGAEVVNSGASVKMSCKASGYTFTTYNMHWVKQTPGQGLEWIGAIYPGNGDTSYNQRFKGKATFTADRSSGTAYMQLSSLPSEDSAVYYCARGGYANGALVDWGQGTLVTVSA VL: DILMTQSHKFMSTSVGDRVTITCKASQDVGTAVAWYQNKPGQSPKLLIFWTSTRHTGVPDRFTGSGSGTDFTLTISNVQSEDLADYFCQQYSRQPLTFGPGTKLEIK

[9770, 9860, 9470, 9370, 9200, 9500]

May I ask what Top (MFI) has been recorded for xi90G10H7 hIgG1 (antibody, V domains shown, chimeric, hIgG1) VH: QVQLQQPGAVLVKPGASVKMSCKASGYTFTSYIIHWVKQTPGQGLEWVGAIYPGNGDASSIQKFKGKATLTVDKSSSTAYMQLSSLTSADSAVYYCARGHYYGSAAWFAYWGQGTLVTVSA VL: DILLTQSPAILSVSPGERVSFSCRASQNIGTGIHWYQQRTNGSLRLLIKYASESISGIPSRFSGSGSGTDFTLSINSVESEDIADYYCQQSNSWPLTFGAGTKLELK ? 9920
